# ASSAY REMARKS: Ratio of drug level in brain to plasma in CD1 mouse at 200 to 300 kBq, iv measured at 5 mins
# Type: ADME, organism-based
# TEST PARAMETERS: read-out: BPR
OBSERVED PROPERTY: Kp at 5 min
I only need the number, thanks.

In: GET /values?readout=Kp at 5 min&item= `[18F]CCn1ccc2ccc(-c3nnc(N4CCN5CCC4CC5)o3)cc21`
Out: 0.11

###

# ASSAY REMARKS: Ratio of drug level in brain to plasma in CD1 mouse at 200 to 300 kBq, iv measured at 15 mins
# Type: ADME, organism-based
# TEST PARAMETERS: read-out: BPR
OBSERVED PROPERTY: Kp at 0.25 h

In: I'd like to know its Kp at 0.25 h. The compound in question is `[18F]CCn1ccc2ccc(-c3nnc(N4CCN5CCC4CC5)o3)cc21`
Out: 0.18

###

# EXPERIMENTAL SYSTEM: Neuronal acetylcholine receptor; alpha3/beta4 (Homo sapiens, UniProt P30926+P32297)
# Sequence (P30926 whole entry): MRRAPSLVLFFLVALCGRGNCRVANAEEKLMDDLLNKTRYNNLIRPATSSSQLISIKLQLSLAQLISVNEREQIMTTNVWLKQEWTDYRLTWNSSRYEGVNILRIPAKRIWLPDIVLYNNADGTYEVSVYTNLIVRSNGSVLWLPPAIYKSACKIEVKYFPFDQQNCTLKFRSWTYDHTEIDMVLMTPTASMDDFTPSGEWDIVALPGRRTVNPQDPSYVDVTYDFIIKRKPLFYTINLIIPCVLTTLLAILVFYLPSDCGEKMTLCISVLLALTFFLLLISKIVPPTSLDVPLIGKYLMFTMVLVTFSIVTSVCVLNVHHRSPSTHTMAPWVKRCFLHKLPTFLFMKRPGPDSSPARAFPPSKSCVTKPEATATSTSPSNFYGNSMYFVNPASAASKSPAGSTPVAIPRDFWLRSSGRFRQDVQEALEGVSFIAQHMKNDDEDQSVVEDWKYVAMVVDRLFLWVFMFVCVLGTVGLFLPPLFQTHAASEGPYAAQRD
# Sequence (P32297 whole entry): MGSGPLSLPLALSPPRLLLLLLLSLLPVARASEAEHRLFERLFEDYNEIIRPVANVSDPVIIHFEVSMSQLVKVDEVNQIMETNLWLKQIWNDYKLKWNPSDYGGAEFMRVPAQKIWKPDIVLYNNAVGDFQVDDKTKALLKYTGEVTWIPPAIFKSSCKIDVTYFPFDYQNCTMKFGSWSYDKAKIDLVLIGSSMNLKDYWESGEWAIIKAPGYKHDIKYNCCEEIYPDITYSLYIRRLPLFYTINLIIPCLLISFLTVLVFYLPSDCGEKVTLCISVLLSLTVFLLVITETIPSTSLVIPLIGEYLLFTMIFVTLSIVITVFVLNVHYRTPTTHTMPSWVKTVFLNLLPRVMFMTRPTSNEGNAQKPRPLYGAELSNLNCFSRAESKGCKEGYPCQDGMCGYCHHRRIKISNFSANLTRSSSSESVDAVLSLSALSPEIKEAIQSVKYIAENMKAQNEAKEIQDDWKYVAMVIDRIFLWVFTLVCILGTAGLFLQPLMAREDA
# ASSAY REMARKS: Displacement of (+/-)[3H]-epibatidine from human alpha3beta4 nAChR transfected in HEK293 cells after 90 mins by liquid scintillation counting analysis
OBSERVED PROPERTY: Ki (nM)
// return numeric value only (unit: nM, not printed)

In: May I ask what Ki has been recorded for `FCCn1ccc2ccc(-c3nnc(N4CCN5CCC4CC5)o3)cc21` ?
Out: 102

###

# ASSAY REMARKS: n-Octanol-PBS distribution coefficient, log D of the compound at pH 7.2 after 30 mins by shake-flask method
# Assay type: physicochemical
OBSERVED PROPERTY: logD at 0.5 h
// return just the number, without any unit appended

In: Need logD at 0.5 h, item `[18F]CCn1ccc2ccc(-c3nnc(N4CCN5CCC4CC5)o3)cc21`
Out: 1.11

###

# ASSAY REMARKS: Ratio of drug level in brain to plasma in CD1 mouse at 200 to 300 kBq, iv measured at 60 mins
# Format: ADME, organism-based
# TEST PARAMETERS: read-out: BPR
OBSERVED PROPERTY: Kp at 1 h
Write the value as a bare number.

In: Returns the measured Kp at 1 h for the input compound. Input: `[18F]CCn1ccc2ccc(-c3nnc(N4CCN5CCC4CC5)o3)cc21`
Out: 0.26

###

# ASSAY REMARKS: Stability of the compound in Tris-HCl buffer assessed as compound remaining at pH 6.7 measured up to 2 hrs by radio-TLC analysis
# Type: physicochemical
# TEST PARAMETERS: read-out: Stability
OBSERVED PROPERTY: remaining at 2 h

In: Tell me the measured remaining at 2 h of `[18F]CCn1ccc2ccc(-c3nnc(N4CCN5CCC4CC5)o3)cc21` , please.
Out: ≥ 97%
